- Tested on: K562
- Protocol Text: NCI tumour cell line growth inhibition, 48 h
The source made the active and inactive calls. No stated cut-off is given here; in the data, active = GI50 up to about 1.1 µM and inactive = higher.
Classes used: active, inactive

                                   molecule  class_label
0             CN(C)CCCn1cnc2cc(Cl)c(Cl)cc21     inactive
1  O=[N+]([O-])c1ccc(C2N3CCCCC3[C@H]3CCCCN23)cc1 (stereo not given in full)     inactive
2  COc1ccc2c(-c3csc(-c4c[nH]c5ccccc45)n3)c[nH]c2c1     inactive
3  CC(NC(=O)/C(=C/c1ccccc1O)NC(=O)c1ccccc1)C(=O)O (stereo not given)     inactive
4  C/C(=C\C(C)COCc1ccccc1)[C@H](COCc1ccccc1)OCc1ccccc1 (stereo not given in full)     inactive
5  CCc1nc(N)nc(N)c1-c1ccc(N2CCNCC2)c([N+](=O)[O-])c1       active
6                O=C(c1cccs1)N1CCc2ccccc2C1     inactive
7  C/C1=C/C2=CC(C)C[C@@H]2C(=O)[C@]2(C)C(=O)CC(C)(C)[C@H]2CC1=O (stereo not given in full)     inactive
8  Cc1csc2c(P(=O)(OC(C)C)OC(C)C)c(-c3ccccc3)cn12     inactive
9  O=C1c2c(Br)sc(Br)c2[C@H]2OC(=S)N[C@@H]12     inactive

----------
- Test system: MDA-MB-435
- Protocol Text: NCI tumour cell line growth inhibition, 48 h
Active and inactive are the calls of the source. Rule as the data show it: active = GI50 up to about 1.1 µM and inactive = higher.
Classes used: yes (1) (active), no (0) (inactive)

>>> df
                                   molecule  class_label
0  COc1cc2c(cc1OC)C13CCN4CC5=CCOC6CC(=O)N2C1C6C5CC43O (stereo not given)       no (0)
1  COc1ccc2c(-c3csc(-c4c[nH]c5ccccc45)n3)c[nH]c2c1       no (0)
2           CN(C)CCC(C#N)(c1ccccc1)c1ccccc1       no (0)
3  COc1ccc(C2OC(N)=C(C#N)C3=C2CCCC3C)cc1OC (stereo not given)       no (0)
4  O=c1c(C(c2cccnc2)c2c(O)oc3cc(O)ccc3c2=O)c(O)oc2cc(O)ccc12       no (0)
5  O=C(c1cccc(C(=O)c2ccc3c4c(cccc24)C(=O)N(c2ccccc2)C3=O)c1)c1ccc2c3c(cccc13)C(=O)N(c1ccccc1)C2=O       no (0)
6                  O=C(O)CNc1ccc(Cl)c(Cl)c1       no (0)
7  Clc1ccccc1-c1nc2cc(C34CC5CC(CC(C5)C3)C4)ccc2[nH]1       no (0)
8  COC(=O)C12OCC34C(CC5C(C)=C(O)C(=O)CC5(C)C3C(O)C1O)OC(=O)C(OC(=O)C=C(C)C)C24 (stereo not given)      yes (1)
9  CC(C)(C)OC(=O)N1CC(CCl)c2ccc(O)cc21 (stereo not given)       no (0)

----------
- System: PC-3
- Protocol Text: NCI tumour cell line growth inhibition, 48 h
The source made the active and inactive calls. Cut-off read from the data, not from the text of the source: active = GI50 up to about 1.1 µM and inactive = higher.
Classes used: active, inactive

In [3]: df
Out[3]:
                                    compound  class_label
 0  CC1(C)OCC2OC3([C@H]4OC(C)(C)O[C@@H]4CO)OC(C)(C)OC3C2O1 (stereo partly drawn)     inactive
 1  CC1Cc2c(Br)nc(N)nc2NC1=O (stereo not drawn)     inactive
 2                O=C(N/N=C\c1cccs1)c1ccncc1     inactive
 3  CC(=O)N1c2ccccc2C(C)(C)OC1C(Cl)(Cl)Cl (stereo not drawn)     inactive
 4                    O=C(O)CSCC(=O)c1ccccc1     inactive
 5  CC(C)(C)NC1=NC(C(F)(F)F)(C(F)(F)F)NC(=O)N1     inactive
 6  COCOC1/C=C/CCCCC(=O)C(C)C#CC1 (stereo not drawn)     inactive
 7  O=C1c2ccsc2-c2cccc3cccc1c23.O=C1c2sccc2-c2cccc3cccc1c23     inactive
 8  COc1ccc(C2C3CCc4ccccc4C3=NN2S(=O)(=O)c2ccc(/C=C/C(=O)O)cc2)cc1 (stereo not drawn)     inactive
 9  COc1cc([C@@H]2c3cc4c(cc3[C@@H](OC3OC5COC(C)OC5C(O)C3O)[C@H]3COC(=O)[C@H]23)OCO4)cc(OC)c1O (stereo partly drawn)       active
10          Cc1cc(=O)n2nc(CSc3nnc(N)s3)sc2n1     inactive
11              [N-]=[N+]=NI1OC(=O)c2ccccc21     inactive
12            Nc1cc2ncnc(Nc3cccc(Br)c3)c2cn1     inactive
13  CC(=O)OCC1OC(n2c(N)c(C#N)c(-c3ccc(C)cc3)c(C#N)c2=S)C(OC(C)=O)C(OC(C)=O)C1OC(C)=O (stereo not drawn)     inactive
14  CC1(C)N(OC2CCCCO2)C(c2ccccc2)C(c2ccccc2)=[N+]1[O-] (stereo not drawn)     inactive
15             Cn1cnc2c(OCC3CCCCC3)nc(N)nc21     inactive
16  COc1cc(/C=C/C(=N\NC(=S)NN)c2sc(NNC(C)=O)nc2C)ccc1O     inactive
17                  O=C(O)CNc1ccc(Cl)c(Cl)c1     inactive
18  S=C(N/N=C(/c1ccccc1)c1ccccn1)Nc1ccccc1Cl       active
19         O=c1[nH]c2nc[nH]c2c(=O)n1C1CCCCC1     inactive
20   COC(=O)c1cc(Br)c(C(=O)C(Cl)(Cl)Cl)[nH]1     inactive
21  O=c1c(C(c2cccnc2)c2c(O)oc3cc(O)ccc3c2=O)c(O)oc2cc(O)ccc12     inactive
22               c1csc(-c2csc(-c3ccsc3)c2)c1     inactive

FYI, the data here is from ChEMBL document CHEMBL1201862.
